Settings: in DMF, 293.15 K
Measured quantity: solubility (mole fraction)
Answers are plain numbers.

Prompt: Item under review: Cc1cc(=O)[nH]c(=S)[nH]1 . Reported solubility (mole fraction)?
Response: 0.0207

----------
Conditions: in DMSO, 323.15 K
Measured quantity: solubility (mole fraction)
Numbers only.

Prompt: Recorded solubility (mole fraction) of Cc1cc(=O)[nH]c(=S)[nH]1 , please.
Response: 0.0773

----------
Conditions: in DMF, 308.15 K
Measured quantity: solubility (mole fraction)
Numbers only.

Prompt: State the recorded solubility (mole fraction) for this entry: Cc1cc(=O)[nH]c(=S)[nH]1
Response: 0.0346

----------
Details: in water, 313.15 K
Measured quantity: solubility (mole fraction)
Give bare numbers.

Prompt: What value of solubility (mole fraction) has been reported for the following molecule? Cc1cc(=O)[nH]c(=S)[nH]1
Response: 0.000129

----------
Conditions: in NMP, 283.15 K
Measured quantity: solubility (mole fraction)
Numbers only.

Prompt: Requested field: solubility (mole fraction). Item: Cc1cc(=O)[nH]c(=S)[nH]1
Response: 0.0155

----------
Conditions: in DMF, 298.15 K
Measured quantity: solubility (mole fraction)
Answers are plain numbers.

Prompt: Entry under review: Cc1cc(=O)[nH]c(=S)[nH]1 . Reported solubility (mole fraction)?
Response: 0.0252

----------
Settings: in NMP, 318.15 K
Measured quantity: solubility (mole fraction)
Give bare numbers.

Prompt: Reported solubility (mole fraction) for Cc1cc(=O)[nH]c(=S)[nH]1 : what is it?
Response: 0.0454

----------
Settings: in water, 293.15 K
Measured quantity: solubility (mole fraction)
Give bare numbers.

Prompt: Param item = Cc1cc(=O)[nH]c(=S)[nH]1 ; retrieve measured solubility (mole fraction).
Response: 5.26e-05

----------
Settings: in NMP, 323.15 K
Measured quantity: solubility (mole fraction)

Prompt: Entry Cc1cc(=O)[nH]c(=S)[nH]1 : reported solubility (mole fraction) = ?
Response: 0.051

----------
Conditions: in DMSO, 318.15 K
Measured quantity: solubility (mole fraction)
Numbers only.

Prompt: What does the data say about its solubility (mole fraction)? Entry: Cc1cc(=O)[nH]c(=S)[nH]1
Response: 0.0692

----------
Conditions: in DMF, 278.15 K
Measured quantity: solubility (mole fraction)
Numbers only.

Prompt: Consider the molecule Cc1cc(=O)[nH]c(=S)[nH]1 and give its measured solubility (mole fraction).
Response: 0.0117

----------
Conditions: in DMSO, 298.15 K
Measured quantity: solubility (mole fraction)
Answers are plain numbers.

Prompt: Sample Cc1cc(=O)[nH]c(=S)[nH]1 — what was its solubility (mole fraction)?
Response: 0.0432

----------
Settings: in NMP, 288.15 K
Measured quantity: solubility (mole fraction)
One number for each entry.

Prompt: Can you look up the measured solubility (mole fraction) of Cc1cc(=O)[nH]c(=S)[nH]1 for me?
Response: 0.0181

----------
Conditions: in DMSO, 303.15 K
Measured quantity: solubility (mole fraction)
Give bare numbers.

Prompt: What does the record list as solubility (mole fraction) for Cc1cc(=O)[nH]c(=S)[nH]1 ?
Response: 0.0491

----------
Conditions: in water, 298.15 K
Measured quantity: solubility (mole fraction)

Prompt: Given the molecule Cc1cc(=O)[nH]c(=S)[nH]1 , what is its reported solubility (mole fraction)?
Response: 6.68e-05

----------
Conditions: in NMP, 298.15 K
Measured quantity: solubility (mole fraction)
Answers are plain numbers.

Prompt: Value lookup for solubility (mole fraction); key = Cc1cc(=O)[nH]c(=S)[nH]1
Response: 0.0246
